Numbers sourced from ChEMBL document CHEMBL2040780.

System: Rattus norvegicus
Experiment: Antiarrhythmic activity in iv dosed Wistar rat assessed as protection against adrenaline-induced arrhythmia administered 15 mins prior to adrenaline-challenge
Format: functional
Conditions: Heart
measurement-label: ED50 (mg/kg)
// return numeric value only (unit: mg/kg, not printed)

Guide cases for ED50, answers given:
molecule: CCOc1ccccc1N1CCN(CC(O)CN2C(=O)N(C)C(=O)C2(c2ccccc2)c2ccccc2)CC1.Cl (racemic)
observed-value: 0.33
//
molecule: c1ccc(CC2=NCCN2)cc1
observed-value: 3.4
//
molecule: COC(=O)C(C)N1C(=O)N(CC(O)CN2CCN(c3ccccc3OC)CC2)C(c2ccccc2)(c2ccccc2)C1=O.Cl (racemic)
observed-value: 0.36
//
molecule: COC(=O)CN1C(=O)N(CC(O)CN2CCN(c3ccccc3OC)CC2)C(c2ccccc2)(c2ccccc2)C1=O.Cl (racemic)
observed-value: 0.69
//
molecule: CCOC(=O)C(C)N1C(=O)N(CC(O)CN2CCN(c3ccccc3OC)CC2)C(c2ccccc2)(c2ccccc2)C1=O.Cl (racemic)
observed-value: 0.41

Item COc1ccccc1N1CCN(CCCCN2C(=O)N(C)C(=O)C2(c2ccccc2)c2ccccc2)CC1.Cl has what recorded ED50?
0.1

Field entry: CN1C(=O)N(CC(O)CN2CCN(c3ccccc3F)CC2)C(c2ccccc2)(c2ccccc2)C1=O.Cl (racemic)
1.92

Field entry: COC(=O)CN1C(=O)N(CCCCN2CCN(c3ccccc3OC)CC2)C(c2ccccc2)(c2ccccc2)C1=O.Cl
1.8

* * *

Measured Activity values are reported for all entries that follow.
System: Rattus norvegicus
Assay: Cardiotoxicity in Wistar rat assessed as effect on QRS interval at 10 mg/kg, iv after 1 min
Assay type: toxicity, organism-based
Parameters: dose 10 mg/kg, route intravenous
Details: in vivo
// return numeric value only (unit: ms, not printed)

Guide cases for Activity, answers given:
compound: COC(=O)C(C)N1C(=O)N(CC(O)CN2CCN(c3ccccc3OC)CC2)C(c2ccccc2)(c2ccccc2)C1=O.Cl (racemic)
Activity, ms: 16

compound: COC(=O)CN1C(=O)N(CC(O)CN2CCN(c3ccccc3OC)CC2)C(c2ccccc2)(c2ccccc2)C1=O.Cl (racemic)
Activity, ms: 20

compound: CN1C(=O)N(CC(O)CN2CCN(c3ccccc3)CC2)C(c2ccccc2)(c2ccccc2)C1=O.Cl (racemic)
Activity, ms: 23

compound: CN1C(=O)N(CC(O)CN2CCN(c3ccccc3Cl)CC2)C(c2ccccc2)(c2ccccc2)C1=O.Cl (racemic)
Activity, ms: 17

compound: C=CC(C(=O)OC)N1C(=O)N(CC(O)CN2CCN(c3ccccc3OC)CC2)C(c2ccccc2)(c2ccccc2)C1=O.Cl (racemic)
Activity, ms: 25

Item COC(=O)CN1C(=O)N(CCCCN2CCN(c3ccccc3OC)CC2)C(c2ccccc2)(c2ccccc2)C1=O.Cl has what recorded Activity?
19.6

Field entry: COC(=O)CN1C(=O)N(CC(O)CN2CCN(c3ccccc3F)CC2)C(c2ccccc2)(c2ccccc2)C1=O.Cl (racemic)
17

Field entry: CCOc1ccccc1N1CCN(CC(O)CN2C(=O)N(C)C(=O)C2(c2ccccc2)c2ccccc2)CC1.Cl (racemic)
18

* * *

Tested on: Rattus norvegicus
Assay: Cardiotoxicity in Wistar rat assessed as effect on Q-T interval at 10 mg/kg, iv after 5 mins
Assay type: toxicity, organism-based
Parameters: dose 10 mg/kg, route intravenous
Details: in vivo
measurement-label: Activity
Just so you know, I need the unit written after the number.

Guide cases for Activity, answers given:
compound: COC(=O)CN1C(=O)N(CC(O)CN2CCN(c3ccccc3OC)CC2)C(c2ccccc2)(c2ccccc2)C1=O.Cl (racemic)
Activity: 76 ms
//
compound: C=CC(C(=O)OC)N1C(=O)N(CC(O)CN2CCN(c3ccccc3OC)CC2)C(c2ccccc2)(c2ccccc2)C1=O.Cl (racemic)
Activity: 78 ms
//
compound: CN1C(=O)N(CC(O)CN2CCN(c3ccccc3Cl)CC2)C(c2ccccc2)(c2ccccc2)C1=O.Cl (racemic)
Activity: 76 ms

# ---- query compound ----
Item CCOc1ccccc1N1CCN(CC(O)CN2C(=O)N(C)C(=O)C2(c2ccccc2)c2ccccc2)CC1.Cl (racemic) has what recorded Activity?
114 ms

* * *

System: Rattus norvegicus
Test: Cardiotoxicity in Wistar rat assessed as effect on QRS interval at 10 mg/kg, iv after 15 mins
Type: toxicity, organism-based
Parameters: dose 10 mg/kg, route intravenous
Conditions: in vivo, 0.25 h
Measured Activity values are reported for all entries that follow.
Just so you know, I need the unit written after the number.

Guide cases for Activity, answers given:
molecule: COC(=O)C(C)N1C(=O)N(CC(O)CN2CCN(c3ccccc3OC)CC2)C(c2ccccc2)(c2ccccc2)C1=O.Cl (racemic)
Activity: 16 ms
//
molecule: COC(=O)CN1C(=O)N(CCCCN2CCN(c3ccccc3OC)CC2)C(c2ccccc2)(c2ccccc2)C1=O.Cl
Activity: 19.5 ms
//
molecule: CN1C(=O)N(CC(O)CN2CCN(c3ccccc3)CC2)C(c2ccccc2)(c2ccccc2)C1=O.Cl (racemic)
Activity: 18 ms
//
molecule: CN1C(=O)N(CC(O)CN2CCN(c3ccccc3Cl)CC2)C(c2ccccc2)(c2ccccc2)C1=O.Cl (racemic)
Activity: 16 ms
//
molecule: COC(=O)CN1C(=O)N(CC(O)CN2CCN(c3ccccc3OC)CC2)C(c2ccccc2)(c2ccccc2)C1=O.Cl (racemic)
Activity: 17 ms

Item CCOc1ccccc1N1CCN(CC(O)CN2C(=O)N(C)C(=O)C2(c2ccccc2)c2ccccc2)CC1.Cl (racemic) has what recorded Activity?
17 ms

Field entry: COC(=O)CN1C(=O)N(CC(O)CN2CCN(c3ccccc3F)CC2)C(c2ccccc2)(c2ccccc2)C1=O.Cl (racemic)
15 ms

Field entry: C=CC(C(=O)OC)N1C(=O)N(CC(O)CN2CCN(c3ccccc3OC)CC2)C(c2ccccc2)(c2ccccc2)C1=O.Cl (racemic)
25 ms

* * *

Tested on: Rattus norvegicus
Experiment: Antiarrhythmic activity in Wistar rat assessed as effect on heart beat at 10 mg/kg, iv after 15 mins
Format: functional
measurement-label: Activity (min⁻¹)
// return numeric value only (unit: min⁻¹, not printed)

Guide cases for Activity, answers given:
compound: CN1C(=O)N(CC(O)CN2CCN(c3ccccc3Cl)CC2)C(c2ccccc2)(c2ccccc2)C1=O.Cl (racemic)
assayed-system: Rattus norvegicus
Activity [min⁻¹]: 303
//
compound: COC(=O)CN1C(=O)N(CCCCN2CCN(c3ccccc3OC)CC2)C(c2ccccc2)(c2ccccc2)C1=O.Cl
assayed-system: Rattus norvegicus
Activity [min⁻¹]: 357.8

# ---- query compound ----
Item COC(=O)CN1C(=O)N(CC(O)CN2CCN(c3ccccc3OC)CC2)C(c2ccccc2)(c2ccccc2)C1=O.Cl (racemic) has what recorded Activity?
261
